Assay: CHI Log D procedure
Format: physicochemical
Conditions: pH 7.4, CHI Log D
quantityName: chromatographic logD
No unit in the answer, please; the number alone is enough.

Q. Look at this compound and give its reported chromatographic logD. CC(=O)N1CCC[C@]12CC=CCCCC1(CCCC=CCCCOC(=O)N3CC[C@@](C(=O)N[C@@H](Cc4ccccc4Cl)C(=O)N[C@@H](Cc4csc5ccccc45)C(=O)N[C@@H](CCC(N)=O)C(N)=O)(C3)NC(=O)[C@H](CC(N)=O)NC(=O)[C@H](Cc3ccccc3)NC(=O)[C@H](Cc3ccccc3)NC(=O)[C@H](C)NC(=O)[C@H](CN(CC(=O)O)CC(F)(F)F)NC(=O)[C@H](CC(=O)O)NC1=O)NC(=O)[C@H](CC(C)(C)C)NC(=O)[C@H](CC(=O)O)NC2=O (stereo partly drawn)
A. 2.54

Q. Look at this compound and give its reported chromatographic logD. CC(=O)N1CCC[C@]12CC=CCCCC1(CCCC=CCCCOC(=O)N3CC[C@@](C(=O)N[C@@H](Cc4ccsc4)C(=O)N[C@@H](Cc4csc5ccccc45)C(=O)N[C@H](C(N)=O)[C@@H](C)O)(C3)NC(=O)[C@H](CC(N)=O)NC(=O)[C@H](Cc3ccccc3)NC(=O)[C@H](C)NC(=O)[C@H](C)NC(=O)[C@H](CC(=O)O)NC(=O)[C@H](CC(=O)O)NC1=O)NC(=O)[C@H](CC(C)(C)C)NC(=O)[C@H](CC(=O)O)NC2=O (stereo partly drawn)
A. 2.1

Q. Look at this compound and give its reported chromatographic logD. CC(=O)N1CCC[C@]12CC=CCCCC1(CCCC=CCCCCCC[C@@](C)(C(=O)N[C@@H](Cc3c[nH]cn3)C(=O)N[C@@H](Cc3csc4ccccc34)C(=O)N[C@@H](CCC(N)=O)C(N)=O)NC(=O)[C@H](C)NC(=O)[C@H](Cc3ccccc3)NC(=O)[C@H](C)NC(=O)[C@H](C)NC(=O)[C@H](CC(=O)O)NC(=O)[C@H](CC(=O)O)NC1=O)NC(=O)[C@H](C)NC(=O)[C@H](CC(=O)O)NC2=O (stereo partly drawn)
A. 1.44
